# Assay explanation: Selectivity index, ratio of IC50 for cytotoxicity against african green monkey Vero cells incubated for 48 hrs by celltiter blue assay to EC50 for anti-trichomonal activity against Trichomonas vaginalis assessed as inhibition of parasite growth incubated for 18 hrs
# Type: toxicity, cell-based
# Conditions: read-out: Ratio IC50/EC50
Quantity measured: selectivity ratio at 48 h

[[record]]
compound = "CCCCC[C@H]1C(C)=C[C@H]2C[C@@H](C)CC[C@@H]2[C@@]1(C)/C(O)=C1\\C(=O)[C@@H](CO)N(C)C1=O"
endpoint_result = "> 170"

[[record]]
compound = "CCCCC[C@H]1[C@@H](C)C[C@H]2C[C@@H](C)CC[C@@H]2[C@@]1(C)/C(O)=C1\\C(=O)[C@@H](CO)N(C)C1=O"
endpoint_result = "> 16"

[[record]]
compound = "C/C=C/C=C/[C@H]1C(C)=C[C@H]2C[C@@H](C)CC[C@@H]2[C@@]1(C)/C(O)=C1\\C(=O)[C@@H](CO)N(C)C1=O"
endpoint_result = 32.1

[[record]]
compound = "CC1=C[C@H]2C[C@@H](C)CC[C@@H]2[C@@](C)(/C(O)=C2\\C(=O)[C@H](COCc3cn(CC4CCCCO4)nn3)N(C)C2=O)[C@H]1/C=C/C=C/C[C@@H](C)O (stereo partly specified)"
endpoint_result = 19.6

[[record]]
compound = "C/C=C/[C@@H]1C=C[C@@H]2C[C@H](C)CC[C@H]2[C@]1(C)/C(O)=C1\\C(=O)[C@H](CO)N(C)C1=O"
endpoint_result = 4.2

[[record]]
compound = "C/C=C/[C@@H]1C=C[C@@H]2C[C@H](C)CC[C@H]2[C@]1(C)/C(O)=C1/C(=O)N[C@@H](CO)C1=O"
endpoint_result = 35.9


----------
# Assay explanation: Selectivity index, ratio of IC50 for cytotoxicity against african green monkey Vero cells incubated for 48 hrs by celltiter blue assay to MIC for antibacterial activity against Mycoplasma genitalium G37C assessed as bacterial growth inhibition incubated for 7 days by phenol red reagent based microbroth dilution assay
# Format: toxicity, cell-based
# Conditions: read-out: Selectivity Index
Quantity measured: selectivity ratio at 48 h

[[record]]
chemical_structure = "C/C=C/C=C/[C@H]1C(C)=C[C@H]2C[C@@H](C)CC[C@@H]2[C@@]1(C)/C(O)=C1\\C(=O)[C@@H](COC)N(C)C1=O"
quantity_measured = "selectivity ratio at 48 h"
endpoint_result = 6.7

[[record]]
chemical_structure = "C/C=C/C=C/[C@H]1C(C)=C[C@H]2C[C@@H](C)CC[C@@H]2[C@@]1(C)/C(O)=C1/C(=O)N[C@H](CO)C1=O"
quantity_measured = "selectivity ratio at 48 h"
endpoint_result = 94.8

[[record]]
chemical_structure = "C/C=C/C=C/[C@H]1C(C)=C[C@H]2C[C@@H](C)CC[C@@H]2[C@@]1(C)/C(O)=C1\\C(=O)[C@H](COCc2cn(Cc3c[nH]c4ccccc34)nn2)N(C)C1=O"
quantity_measured = "selectivity ratio at 48 h"
endpoint_result = 2.5

[[record]]
chemical_structure = "C/C=C/C=C/[C@H]1C(C)=C[C@H]2C[C@@H](C)CC[C@@H]2[C@@]1(C)/C(O)=C1\\C(=O)[C@@H](CO)N(C)C1=O"
quantity_measured = "selectivity ratio at 48 h"
endpoint_result = 141

[[record]]
chemical_structure = "C/C=C/C=C/[C@H]1C(C)=C[C@H]2C[C@@H](C)CC[C@@H]2[C@@]1(C)/C(O)=C1\\C(=O)[C@H](COCc2cn(CCc3ccc(O)cc3)nn2)N(C)C1=O"
quantity_measured = "selectivity ratio at 48 h"
endpoint_result = 29.7

[[record]]
chemical_structure = "C/C=C/[C@@H]1C=C[C@@H]2C[C@H](C)CC[C@H]2[C@]1(C)/C(O)=C1/C(=O)N[C@@H](CO)C1=O"
quantity_measured = "selectivity ratio at 48 h"
endpoint_result = 40

[[record]]
chemical_structure = "C/C=C/C=C/[C@H]1C(C)=C[C@H]2C[C@@H](C)CC[C@@H]2[C@@]1(C)/C(O)=C1\\C(=O)[C@@H](COCc2cn(Cc3c[nH]c4ccccc34)nn2)N(C)C1=O"
quantity_measured = "selectivity ratio at 48 h"
endpoint_result = 17.9

